Just for reference, ChEMBL document CHEMBL5705889 is where these values come from.

- Tested on: BaF3
- assay_remarks: cells
- Format: functional, cell-based
- applied_conditions: Mus musculus, BaF3, 72 h
measure: IC50 (nM)
Numbers only, in nM.

I have 4 compounds here; please give me IC50 for each one.
1. C=CC(=O)Nc1cccc(Oc2nc(Nc3ccc(N4CCN(C)CC4)cc3OC)ncc2Cl)c1
2. C=CC(=O)Nc1cccc(Oc2nc(Nc3ccc(N4CCN(C)CC4)cc3)ncc2Cl)c1
3. CC#CC(=O)Nc1ccc2ncnc(Nc3cccc(Br)c3)c2c1
4. C=CC(=O)Nc1cccc(Sc2nc(Nc3ccc(N4CCN(C)CC4)cc3)ncc2Cl)c1

1: 35; 2: 10; 3: 8; 4: 20

* * *

- assay_remarks: Drug concentration in mouse plasma at 10 mg/kg, po administered as single dose and measured after 8 hrs
- Type: ADME, organism-based
measure: concentration at 8 h (ng/mL)
Give bare numbers, in ng/mL.

Give recorded concentration at 8 h. C=CC(=O)Nc1cccc(Oc2nc(Nc3ccc(N4CCN(C)CC4)cc3OC)ncc2Cl)c1
59.2

* * *

- test_system: Epidermal growth factor receptor (Homo sapiens, UniProt P00533, L858R)
- Sequence (P00533 25-1210 L858R limits assumed): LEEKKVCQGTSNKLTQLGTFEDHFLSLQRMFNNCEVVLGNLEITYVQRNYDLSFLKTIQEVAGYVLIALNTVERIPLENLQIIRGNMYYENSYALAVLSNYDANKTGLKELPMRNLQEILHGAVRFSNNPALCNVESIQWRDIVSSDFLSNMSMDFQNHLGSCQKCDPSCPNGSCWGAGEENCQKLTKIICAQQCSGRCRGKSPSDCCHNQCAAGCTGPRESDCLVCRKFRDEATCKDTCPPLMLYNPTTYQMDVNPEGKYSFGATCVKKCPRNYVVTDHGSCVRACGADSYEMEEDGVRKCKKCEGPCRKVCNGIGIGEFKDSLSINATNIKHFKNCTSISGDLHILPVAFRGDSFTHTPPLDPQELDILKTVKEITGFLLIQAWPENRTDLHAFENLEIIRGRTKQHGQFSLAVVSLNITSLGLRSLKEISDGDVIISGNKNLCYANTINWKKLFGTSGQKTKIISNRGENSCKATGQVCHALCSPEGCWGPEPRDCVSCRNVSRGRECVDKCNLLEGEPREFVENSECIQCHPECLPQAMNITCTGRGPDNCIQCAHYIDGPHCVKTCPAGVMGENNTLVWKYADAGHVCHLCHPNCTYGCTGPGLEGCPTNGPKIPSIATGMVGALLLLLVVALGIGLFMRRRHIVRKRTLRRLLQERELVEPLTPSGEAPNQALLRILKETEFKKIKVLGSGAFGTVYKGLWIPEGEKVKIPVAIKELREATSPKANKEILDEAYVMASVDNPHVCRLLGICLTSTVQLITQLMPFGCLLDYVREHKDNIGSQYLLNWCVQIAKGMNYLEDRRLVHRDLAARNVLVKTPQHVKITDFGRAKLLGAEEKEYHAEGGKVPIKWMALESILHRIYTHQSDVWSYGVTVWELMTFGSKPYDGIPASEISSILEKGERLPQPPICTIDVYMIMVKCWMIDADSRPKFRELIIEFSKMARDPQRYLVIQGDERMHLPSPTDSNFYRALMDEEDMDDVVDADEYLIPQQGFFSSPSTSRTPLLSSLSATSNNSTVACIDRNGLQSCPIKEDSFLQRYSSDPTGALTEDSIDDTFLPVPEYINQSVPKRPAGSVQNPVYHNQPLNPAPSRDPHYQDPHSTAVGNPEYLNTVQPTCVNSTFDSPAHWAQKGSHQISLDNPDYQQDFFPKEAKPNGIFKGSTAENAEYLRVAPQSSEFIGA
- assay_remarks: Binding affinity to EGFR L858R mutant (unknown origin) assessed as dissociation constant
measure: Kd
Give your result as the value with the unit written after it.

Find the measured Kd of CCC(=O)Nc1cccc(Oc2nc(Nc3ccc(N4CCN(C)CC4)cc3OC)ncc2Cl)c1 and report it.
1500 nM

* * *

- assay_remarks: Drug concentration in mouse plasma at 10 mg/kg, po administered as single dose and measured after 6 hrs
- Format: ADME, organism-based
measure: concentration at 6 h (ng/mL)
Answers are plain numbers, in ng/mL.

Output concentration at 6 h of C=CC(=O)Nc1cccc(Oc2nc(Nc3ccc(N4CCN(C)CC4)cc3OC)ncc2Cl)c1
140

* * *

- assay_remarks: MRT in mouse at 1 mg/kg, iv administered as single dose
- Type: ADME, organism-based
- applied_conditions: in vivo
measure: MRT (h)
Answers are plain numbers, in h.

Look up and report measured MRT for this entry: C=CC(=O)Nc1cccc(Oc2nc(Nc3ccc(N4CCN(C)CC4)cc3OC)ncc2Cl)c1
1.51

* * *

- test_system: UniProt Q9P2K8
- Sequence (Q9P2K8 whole entry): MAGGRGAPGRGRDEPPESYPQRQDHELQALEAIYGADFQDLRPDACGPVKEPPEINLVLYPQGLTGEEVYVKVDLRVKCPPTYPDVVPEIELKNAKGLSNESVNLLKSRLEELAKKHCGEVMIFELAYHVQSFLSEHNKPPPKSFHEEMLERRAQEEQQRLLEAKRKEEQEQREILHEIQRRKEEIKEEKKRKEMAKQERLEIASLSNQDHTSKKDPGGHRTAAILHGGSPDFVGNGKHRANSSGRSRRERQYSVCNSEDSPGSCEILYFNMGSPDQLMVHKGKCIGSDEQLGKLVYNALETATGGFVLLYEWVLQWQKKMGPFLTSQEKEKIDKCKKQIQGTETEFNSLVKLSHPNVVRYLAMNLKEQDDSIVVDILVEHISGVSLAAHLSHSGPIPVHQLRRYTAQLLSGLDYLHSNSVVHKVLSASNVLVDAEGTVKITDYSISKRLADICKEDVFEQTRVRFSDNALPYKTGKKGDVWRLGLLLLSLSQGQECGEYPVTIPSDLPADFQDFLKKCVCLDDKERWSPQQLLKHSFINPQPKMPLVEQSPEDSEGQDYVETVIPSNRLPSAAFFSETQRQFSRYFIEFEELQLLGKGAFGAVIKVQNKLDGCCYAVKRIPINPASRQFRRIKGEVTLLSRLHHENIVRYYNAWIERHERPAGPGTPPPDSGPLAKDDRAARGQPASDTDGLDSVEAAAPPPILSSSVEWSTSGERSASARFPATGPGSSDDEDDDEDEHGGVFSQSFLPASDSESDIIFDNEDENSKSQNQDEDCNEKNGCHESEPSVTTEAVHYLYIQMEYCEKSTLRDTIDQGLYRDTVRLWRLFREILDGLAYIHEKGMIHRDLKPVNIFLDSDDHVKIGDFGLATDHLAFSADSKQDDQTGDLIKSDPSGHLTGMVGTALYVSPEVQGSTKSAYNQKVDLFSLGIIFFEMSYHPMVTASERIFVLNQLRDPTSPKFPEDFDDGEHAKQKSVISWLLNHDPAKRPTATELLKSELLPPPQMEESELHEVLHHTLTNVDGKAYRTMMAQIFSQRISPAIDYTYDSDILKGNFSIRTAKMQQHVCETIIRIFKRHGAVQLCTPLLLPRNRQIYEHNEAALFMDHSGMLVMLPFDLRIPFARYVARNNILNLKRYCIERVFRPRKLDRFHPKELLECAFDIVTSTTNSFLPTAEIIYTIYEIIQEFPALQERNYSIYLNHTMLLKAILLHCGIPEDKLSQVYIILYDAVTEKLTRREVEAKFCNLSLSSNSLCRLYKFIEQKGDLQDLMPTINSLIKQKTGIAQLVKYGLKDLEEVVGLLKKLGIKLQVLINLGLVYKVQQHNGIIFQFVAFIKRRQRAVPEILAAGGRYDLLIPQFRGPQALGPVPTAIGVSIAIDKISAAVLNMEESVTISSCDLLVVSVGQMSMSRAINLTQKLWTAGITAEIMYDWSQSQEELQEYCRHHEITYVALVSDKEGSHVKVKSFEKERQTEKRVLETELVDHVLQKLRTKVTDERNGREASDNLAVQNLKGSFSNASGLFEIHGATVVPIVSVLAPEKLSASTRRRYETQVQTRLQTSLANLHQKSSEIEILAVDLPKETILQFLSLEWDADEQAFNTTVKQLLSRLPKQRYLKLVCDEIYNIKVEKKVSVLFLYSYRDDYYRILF
measure: pKd
Numbers only, as −log10 of the molar value.

Return pKd (reported value) for this molecule: C=CC(=O)Nc1cccc(Oc2nc(Nc3ccc(N4CCN(C)CC4)cc3OC)ncc2Cl)c1
6.85

* * *

- assay_remarks: Drug concentration in mouse plasma at 1 mg/kg, iv administered as single dose and measured after 1 hrs
- Type: ADME, organism-based
measure: concentration at 1 h (ng/mL)
Answers are plain numbers, in ng/mL.

Give the measured concentration at 1 h for C=CC(=O)Nc1cccc(Oc2nc(Nc3ccc(N4CCN(C)CC4)cc3OC)ncc2Cl)c1
228

* * *

- test_system: Epidermal growth factor receptor (Homo sapiens)
- assay_remarks: Inhibition of wildtype EGFR (unknown origin) transformed in mouse BaF3 cells
measure: IC50 (nM)
Numbers only, in nM.

// Input: C=CC(=O)Nc1cccc(Oc2nc(Nc3ccc(N4CCN(C)CC4)cc3)ncc2Cl)c1 . Output its IC50 only.
1820

* * *

- Tested on: BaF3
- assay_remarks: cells
- Format: functional, cell-based
- applied_conditions: Mus musculus, BaF3, 72 h
measure: pIC50
Numbers only, as −log10 of the molar value.

smiles_structure | pIC50
C=CC(=O)Nc1cccc(Sc2nc(Nc3ccc(N4CCN(C)CC4)cc3)ncc2Cl)c1 | 8.22
CCC(=O)Nc1cccc(Oc2nc(Nc3ccc(N4CCN(C)CC4)cc3OC)ncc2Cl)c1 | 5.89
C=CC(=O)Nc1cccc(Oc2nc(Nc3ccc(N4CCN(C)CC4)cc3OC)ncc2Cl)c1 | 8.70
CCOc1cc2ncc(C#N)c(Nc3ccc(OCc4ccccn4)c(Cl)c3)c2cc1NC(=O)/C=C/CN(C)C | 5.63
C=CC(=O)Nc1cccc(Oc2nc(Nc3ccc(N4CCN(C)CC4)cc3)ncc2Cl)c1 | 7.85

Recall and state the measured pIC50 for CC#CC(=O)Nc1ccc2ncnc(Nc3cccc(Br)c3)c2c1 .
5.97

* * *

- assay_remarks: Clearance in mouse at 1 mg/kg, iv administered as single dose
- Format: ADME, organism-based
- applied_conditions: in vivo
measure: clearance (mL/min/kg)
Answers are plain numbers, in mL/min/kg.

Input C=CC(=O)Nc1cccc(Oc2nc(Nc3ccc(N4CCN(C)CC4)cc3OC)ncc2Cl)c1 , output reported clearance.
17.1

* * *

- assay_remarks: Drug concentration in mouse plasma at 10 mg/kg, po administered as single dose and measured after 0.25 hrs
- Format: ADME, organism-based
measure: concentration at 0.25 h (ng/mL)
Answers are plain numbers, in ng/mL.

Hello, please tell me recorded concentration at 0.25 h for this one: C=CC(=O)Nc1cccc(Oc2nc(Nc3ccc(N4CCN(C)CC4)cc3OC)ncc2Cl)c1
429

* * *

- test_system: Serine/threonine-protein kinase DCLK3 (Homo sapiens, UniProt Q9C098)
- Sequence (Q9C098 whole entry): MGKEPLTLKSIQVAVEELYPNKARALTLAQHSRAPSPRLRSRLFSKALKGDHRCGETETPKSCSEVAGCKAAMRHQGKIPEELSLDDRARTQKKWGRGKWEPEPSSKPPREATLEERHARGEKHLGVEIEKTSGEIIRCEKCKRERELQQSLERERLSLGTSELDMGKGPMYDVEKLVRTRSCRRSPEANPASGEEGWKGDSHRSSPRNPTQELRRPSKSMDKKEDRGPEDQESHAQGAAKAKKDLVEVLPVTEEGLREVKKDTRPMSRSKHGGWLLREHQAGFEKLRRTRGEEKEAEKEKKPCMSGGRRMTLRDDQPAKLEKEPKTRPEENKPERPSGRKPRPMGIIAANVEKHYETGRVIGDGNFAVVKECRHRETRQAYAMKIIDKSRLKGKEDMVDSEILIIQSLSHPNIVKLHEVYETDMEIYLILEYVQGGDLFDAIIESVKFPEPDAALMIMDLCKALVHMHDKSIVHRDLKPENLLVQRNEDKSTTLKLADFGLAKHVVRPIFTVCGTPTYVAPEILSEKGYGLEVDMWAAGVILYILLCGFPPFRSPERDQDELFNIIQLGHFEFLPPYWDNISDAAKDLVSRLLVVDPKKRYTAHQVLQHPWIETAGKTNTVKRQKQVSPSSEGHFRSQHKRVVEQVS
measure: pKd
Numbers only, as −log10 of the molar value.

Return reported pKd for target or system Serine/threonine-protein kinase DCLK3 (Homo sapiens, UniProt Q9C098), item C=CC(=O)Nc1cccc(Oc2nc(Nc3ccc(N4CCN(C)CC4)cc3OC)ncc2Cl)c1 .
6.04

* * *

- assay_remarks: Oral bioavailability in mouse at 10 mg/kg administered as single dose
- Type: ADME, organism-based
- applied_conditions: in vivo
measure: bioavailability
For clarity, give the value followed by its unit.

Look up and report measured bioavailability for this entry: C=CC(=O)Nc1cccc(Oc2nc(Nc3ccc(N4CCN(C)CC4)cc3OC)ncc2Cl)c1
24.5%

* * *

- assay_remarks: Drug concentration in mouse plasma at 10 mg/kg, po administered as single dose and measured after 1 hrs
- Format: ADME, organism-based
measure: concentration at 1 h (ng/mL)
Numbers only, in ng/mL.

Supply recorded concentration at 1 h for C=CC(=O)Nc1cccc(Oc2nc(Nc3ccc(N4CCN(C)CC4)cc3OC)ncc2Cl)c1 here.
340

* * *

- assay_remarks: Drug concentration in mouse plasma at 1 mg/kg, iv administered as single dose and measured after 2 hrs
- Assay type: ADME, organism-based
measure: concentration at 2 h (ng/mL)
Give bare numbers, in ng/mL.

Please supply the value of reported concentration at 2 h for the item C=CC(=O)Nc1cccc(Oc2nc(Nc3ccc(N4CCN(C)CC4)cc3OC)ncc2Cl)c1
80.4

* * *

- test_system: Tyrosine-protein kinase JAK2 (Homo sapiens)
- Sequence (O60674 whole entry, looked up, the tested form may be a part): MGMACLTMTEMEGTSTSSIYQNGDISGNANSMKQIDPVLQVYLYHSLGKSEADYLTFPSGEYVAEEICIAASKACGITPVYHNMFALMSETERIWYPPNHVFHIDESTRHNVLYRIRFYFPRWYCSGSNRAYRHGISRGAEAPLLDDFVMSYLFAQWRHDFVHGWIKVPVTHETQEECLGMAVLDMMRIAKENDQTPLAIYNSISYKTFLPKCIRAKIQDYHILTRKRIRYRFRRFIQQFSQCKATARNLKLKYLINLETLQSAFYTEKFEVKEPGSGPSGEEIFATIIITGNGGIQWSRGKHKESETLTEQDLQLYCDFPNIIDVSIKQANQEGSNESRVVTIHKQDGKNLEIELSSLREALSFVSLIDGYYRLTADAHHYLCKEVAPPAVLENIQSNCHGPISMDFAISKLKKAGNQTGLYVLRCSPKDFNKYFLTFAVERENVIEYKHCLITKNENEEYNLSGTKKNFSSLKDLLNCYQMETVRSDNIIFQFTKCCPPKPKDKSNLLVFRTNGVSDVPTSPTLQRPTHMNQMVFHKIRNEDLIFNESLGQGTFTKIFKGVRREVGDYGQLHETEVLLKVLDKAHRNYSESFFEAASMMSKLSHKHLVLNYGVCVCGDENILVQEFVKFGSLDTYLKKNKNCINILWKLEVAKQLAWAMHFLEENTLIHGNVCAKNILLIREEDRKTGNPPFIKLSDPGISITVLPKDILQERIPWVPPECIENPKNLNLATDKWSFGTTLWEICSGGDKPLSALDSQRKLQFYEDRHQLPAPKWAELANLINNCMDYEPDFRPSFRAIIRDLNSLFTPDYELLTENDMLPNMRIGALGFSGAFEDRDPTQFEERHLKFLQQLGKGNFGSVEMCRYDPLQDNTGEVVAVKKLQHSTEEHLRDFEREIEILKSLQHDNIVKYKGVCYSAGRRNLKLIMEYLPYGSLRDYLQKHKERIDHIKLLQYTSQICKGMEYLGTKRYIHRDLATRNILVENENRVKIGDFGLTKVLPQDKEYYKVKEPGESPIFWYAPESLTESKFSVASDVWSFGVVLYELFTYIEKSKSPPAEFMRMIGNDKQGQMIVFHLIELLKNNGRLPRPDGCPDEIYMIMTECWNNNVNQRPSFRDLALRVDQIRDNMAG
- assay_remarks: Inhibition of TEL fused JAK2 (unknown origin) transformed in mouse BaF3 cells
measure: pIC50
Answers are plain numbers, as −log10 of the molar value.

smiles_structure | measure | reading
C=CC(=O)Nc1cccc(Oc2nc(Nc3ccc(N4CCN(C)CC4)cc3)ncc2Cl)c1 | pIC50 | 5.70

Okay, now this compound:
Write down pIC50 measured for item C=CC(=O)Nc1cccc(Oc2nc(Nc3ccc(N4CCN(C)CC4)cc3OC)ncc2Cl)c1
5.42

* * *

- test_system: Tyrosine-protein kinase Blk (Homo sapiens, UniProt P51451)
- Sequence (P51451 whole entry): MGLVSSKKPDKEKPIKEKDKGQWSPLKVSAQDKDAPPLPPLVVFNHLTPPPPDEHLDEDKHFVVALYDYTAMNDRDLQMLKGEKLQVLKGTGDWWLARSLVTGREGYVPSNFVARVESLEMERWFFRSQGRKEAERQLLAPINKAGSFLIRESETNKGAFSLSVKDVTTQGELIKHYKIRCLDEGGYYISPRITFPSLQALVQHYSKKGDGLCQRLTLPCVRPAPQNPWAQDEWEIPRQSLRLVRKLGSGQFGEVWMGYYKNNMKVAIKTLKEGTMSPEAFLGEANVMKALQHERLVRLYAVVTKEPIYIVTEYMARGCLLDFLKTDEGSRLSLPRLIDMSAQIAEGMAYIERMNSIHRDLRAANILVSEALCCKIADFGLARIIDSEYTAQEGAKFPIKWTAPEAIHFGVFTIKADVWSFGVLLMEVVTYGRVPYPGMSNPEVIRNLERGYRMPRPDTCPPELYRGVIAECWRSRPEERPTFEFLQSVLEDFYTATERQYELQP
measure: Kd
Report the figure along with its unit, number first.

Quick one: give measured Kd for C=CC(=O)Nc1cccc(Oc2nc(Nc3ccc(N4CCN(C)CC4)cc3OC)ncc2Cl)c1
220 nM

* * *

- assay_remarks: cells
- Assay type: functional, cell-based
- applied_conditions: Homo sapiens, NCI-H1781, 72 h
measure: pIC50
One number for each entry, as −log10 of the molar value.

The following molecules have reported results that may help.
smiles_structure | reading
C=CC(=O)Nc1cccc(Oc2nc(Nc3ccc(N4CCN(C)CC4)cc3)ncc2Cl)c1 | 6.13
CCOc1cc2ncc(C#N)c(Nc3ccc(OCc4ccccn4)c(Cl)c3)c2cc1NC(=O)/C=C/CN(C)C | 7.08

Give pIC50 for all molecules that follow.
1. C=CC(=O)Nc1cccc(Sc2nc(Nc3ccc(N4CCN(C)CC4)cc3)ncc2Cl)c1
2. C=CC(=O)Nc1cccc(Oc2nc(Nc3ccc(N4CCN(C)CC4)cc3OC)ncc2Cl)c1
3. CC#CC(=O)Nc1ccc2ncnc(Nc3cccc(Br)c3)c2c1

6.13
5.82
7.06
